system-tested: T1, human DLL3 (ACRO, DLL3-H52H4) (human, UniProt Q9NYJ7 27-492)
T1 construct: Bought
T1 sequence: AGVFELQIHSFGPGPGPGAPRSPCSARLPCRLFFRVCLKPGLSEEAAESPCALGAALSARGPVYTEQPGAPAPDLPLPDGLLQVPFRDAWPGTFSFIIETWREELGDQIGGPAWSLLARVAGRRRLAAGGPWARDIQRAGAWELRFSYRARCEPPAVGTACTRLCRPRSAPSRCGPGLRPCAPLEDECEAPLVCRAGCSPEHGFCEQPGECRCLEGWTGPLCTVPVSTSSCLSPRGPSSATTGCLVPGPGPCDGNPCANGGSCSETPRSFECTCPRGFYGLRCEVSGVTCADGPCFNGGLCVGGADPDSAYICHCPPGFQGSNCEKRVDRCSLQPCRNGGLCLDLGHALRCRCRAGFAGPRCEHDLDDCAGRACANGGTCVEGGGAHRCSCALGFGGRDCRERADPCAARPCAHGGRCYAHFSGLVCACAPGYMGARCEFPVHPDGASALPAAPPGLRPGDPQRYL
experiment: SPR Biacore 8K, Ab captured on Protein A
Please go through the items and note down their kon.
Answers are plain numbers, in M⁻¹ s⁻¹.

Below: 4 binders and their reported kon.
{"binder": "hu6L2H3 (antibody, human IgG1, kappa, V domains shown) VH: EVQLVQSGAEVKKPGASVKVSCKASGYTFTDYYMNWVRQAPGQRLEWIGIINPYSGVTIYNHKFKGRATLTVDKSANTAYMELSSLRSEDTAVYYCARQDSLLDYAMDYWGQGTTVTVSS VL: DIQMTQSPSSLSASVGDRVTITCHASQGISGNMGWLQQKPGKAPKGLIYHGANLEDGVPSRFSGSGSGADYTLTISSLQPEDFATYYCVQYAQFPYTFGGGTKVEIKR", "uom": "M⁻¹ s⁻¹", "kon": 695000}
{"binder": "hu6L2H11 (antibody, human IgG1, kappa, V domains shown) VH: EVQLVQSGSELKKPGASVKVSCKASGYTFTDYYMNWVKQAPGQGLEWMGIINPYSGVTIYNHKFKGRFVLSVDKSSNTAYLQISSLKAEDTAVYYCARQDSLLDYAMDYWGQGTTVTVSS VL: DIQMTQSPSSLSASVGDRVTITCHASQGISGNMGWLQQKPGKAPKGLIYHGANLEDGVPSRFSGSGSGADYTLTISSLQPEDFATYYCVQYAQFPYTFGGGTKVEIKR", "uom": "M⁻¹ s⁻¹", "kon": "2.06e+06"}
{"binder": "hu30L2H5 (antibody, human IgG1, kappa, V domains shown) VH: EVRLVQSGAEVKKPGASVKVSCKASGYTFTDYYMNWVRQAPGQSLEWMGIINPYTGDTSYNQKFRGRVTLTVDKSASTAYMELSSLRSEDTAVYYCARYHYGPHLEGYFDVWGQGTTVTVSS VL: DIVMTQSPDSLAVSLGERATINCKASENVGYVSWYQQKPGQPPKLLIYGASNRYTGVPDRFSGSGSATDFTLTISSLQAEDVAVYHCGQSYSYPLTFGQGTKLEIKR", "uom": "M⁻¹ s⁻¹", "kon": 935000}
{"binder": "hu30L4H8 (antibody, human IgG1, kappa, V domains shown) VH: EVRLVQFGAVVKKPGASVKVSCKASGYTFTDYYMNWVRQAPGQSLEWMGIINPYTGDTSYNQKFRGRVTLTVDKSSSTAYMELSSLRSEDTAVYYCARYHYGPHLEGYFDVWGQGTTVTVSS VL: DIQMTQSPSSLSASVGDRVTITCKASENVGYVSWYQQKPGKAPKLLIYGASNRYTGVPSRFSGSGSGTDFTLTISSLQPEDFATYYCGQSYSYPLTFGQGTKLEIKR", "uom": "M⁻¹ s⁻¹", "kon": 343000}

# evaluate next
[Q] Give me measured kon, please, for this binder: hu30L1H9 (antibody, human IgG1, kappa, V domains shown) VH: EVRLVQSGAEVKKPGASVKVSCKASGYTFTDYYMNWVRQAPGQSLEWIGIINPYTGDTSYNQKFRGRATLTVDKSASTAYMELSSLRSEDTAVYYCARYHYGPHLEGYFDVWGQGTTVTVSS VL: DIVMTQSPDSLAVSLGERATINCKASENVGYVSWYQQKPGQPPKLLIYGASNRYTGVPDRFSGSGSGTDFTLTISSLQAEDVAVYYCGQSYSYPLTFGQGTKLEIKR
[A] 419000
